Tested on: 253994-281-T-J1-PDC KRAS-mutant spheroids with HUVEC/MSC, viability
test_details: Anticancer human tumor 253994-281-T-J1-PDC patient-derived colorectal carcinoma cell line growth inhibition [KRAS2]; active = viability on the fitted dose curve at most 10% of control; inactive = the rest
experimental_context: second compound 3.16 µM; first compound 1 µM
Respond using exactly one of the listed classes: active, inactive

*Q* Answer briefly: the call reported for Cn1nccc1Nc1nccc(-c2cc3c(s2)C(C)(C)N(CCN2CCOCC2)C3=O)n1 + C=CC(=O)N1CCN(c2nc(OCC3CCCN3C)nc3c2CCN(c2cccc4cccc(C)c24)C3)CC1CC#N in this assay.
*A* inactive

*Q* Fill in: this test's call for Cn1nccc1Nc1nccc(-c2cc3c(s2)C(C)(C)N(CCN2CCOCC2)C3=O)n1 + CNCc1ccccc1-c1csc(C(C)Nc2nc(C)nc3cc(OC)c(OC)cc23)c1 is ___
*A* active

*Q* Returns: the outcome recorded for O=C(c1cc(Cc2n[nH]c(=O)c3ccccc23)ccc1F)N1CCN(C(=O)C2CC2)CC1 + CC1OCC2(CCN(c3cnc(Sc4ccnc(N)c4Cl)c(N)n3)CC2)C1N in this assay.
*A* inactive

*Q* Per the assay record, what outcome was assigned to CC(C)NCC(C(=O)N1CCN(c2ncnc3c2C(C)CC3O)CC1)c1ccc(Cl)cc1 (stereo not given) + COc1cc2nc(C)nc(NC(C)c3cc(N)cc(C(F)(F)F)c3)c2cc1OC1CCOC1 ?
*A* inactive

*Q* For this molecule, state the assay outcome: COc1cc(Nc2ncc3c(n2)-c2ccc(Cl)cc2C(c2c(F)cccc2OC)=NC3)ccc1C(=O)O + C=CC(=O)N1CCN(c2nc(=O)n(-c3c(C)ccnc3C(C)C)c3nc(-c4c(O)cccc4F)c(F)cc23)C(C)C1
*A* inactive

----------
Test system: 253994-281-T-J1-PDC KRAS-mutant spheroids with HUVEC/MSC, viability
test_details: Anticancer human tumor 253994-281-T-J1-PDC cell line growth inhibition [KRAS2];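 note: spheroids exposed to agents for seven days before readout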;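 for viability, T/C: percent of DMSO vehicle control viability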
experimental_context: second compound 0.316 µM; first compound 1 µM; stronger effect = lower value
Param label: returns t when viability, T/C < 80%, returns f otherwise, including exact equality.

*Q* Here's an entry: COc1cc(Nc2ncc3c(n2)-c2ccc(Cl)cc2C(c2c(F)cccc2OC)=NC3)ccc1C(=O)O + C=CC(=O)N1CCN(c2nc(=O)n(-c3c(C)ccnc3C(C)C)c3nc(-c4c(O)cccc4F)c(F)cc23)C(C)C1 . Is its viability, T/C below 80%?
*A* t

*Q* Threshold test, viability, T/C < 80%: CCNC(=O)CC1N=C(c2ccc(Cl)cc2)c2cc(OC)ccc2-n2c(C)nnc21 (stereo not given) + C=CC(=O)N1CCN(c2nc(=O)n(-c3c(C)ccnc3C(C)C)c3nc(-c4c(O)cccc4F)c(F)cc23)C(C)C1
*A* f

*Q* Hi there! Is viability, T/C for CC(C)NCC(C(=O)N1CCN(c2ncnc3c2C(C)CC3O)CC1)c1ccc(Cl)cc1 (stereo not given) + CC1OCC2(CCN(c3cnc(Sc4ccnc(N)c4Cl)c(N)n3)CC2)C1N below 80%, do you know?
*A* f

*Q* Is the reported viability, T/C for O=C(c1cc(Cc2n[nH]c(=O)c3ccccc23)ccc1F)N1CCN(C(=O)C2CC2)CC1 + C=CC(=O)N1CCN(c2nc(=O)n(-c3c(C)ccnc3C(C)C)c3nc(-c4c(O)cccc4F)c(F)cc23)C(C)C1 strictly below 80%?
*A* f

*Q* Hi there! Is viability, T/C for Cn1nccc1Nc1nccc(-c2cc3c(s2)C(C)(C)N(CCN2CCOCC2)C3=O)n1 + C=CC(=O)N1CCN(c2nc(OCC3CCCN3C)nc3c2CCN(c2cccc4cccc(C)c24)C3)CC1CC#N below 80%, do you know?
*A* t

----------
Test system: 253994-281-T-J1-PDC KRAS-mutant spheroids with HUVEC/MSC, viability
test_details: Anticancer human tumor 253994-281-T-J1-PDC cell line growth inhibition [KRAS2];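 note: spheroids exposed to agents for seven days before readout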;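 for viability, T/C: percent of DMSO vehicle control viability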
experimental_context: second compound 1 µM; first compound 0.0316 µM; stronger effect = lower value
Give measured viability, T/C for each item. Keep answers brief.
Numbers only; they are read as %.

*Q* Could you share which viability, T/C value was measured for COC(=O)c1ccc2c(C(=Nc3ccc(N(C)C(=O)CN4CCN(C)CC4)cc3)c3ccccc3)c(O)[nH]c2c1 + C=CC(=O)N1CCN(c2nc(=O)n(-c3c(C)ccnc3C(C)C)c3nc(-c4c(O)cccc4F)c(F)cc23)C(C)C1 ?
*A* 121

*Q* So what does the record say about viability, T/C for Cn1ncnc1[C@H]1c2n[nH]c(=O)c3cc(F)cc(c23)N[C@@H]1c1ccc(F)cc1 + C=CC(=O)N1CCN(c2nc(=O)n(-c3c(C)ccnc3C(C)C)c3nc(-c4c(O)cccc4F)c(F)cc23)C(C)C1 ?
*A* 114

*Q* Would you mind telling me what viability, T/C value was observed for CCNC(=O)CC1N=C(c2ccc(Cl)cc2)c2cc(OC)ccc2-n2c(C)nnc21 (stereo not given) + CC1OCC2(CCN(c3cnc(Sc4ccnc(N)c4Cl)c(N)n3)CC2)C1N ?
*A* 80

*Q* Please report the recorded viability, T/C for COc1cc2nccc(Oc3ccc(NC(=O)C4(C(=O)Nc5ccc(F)cc5)CC4)cc3)c2cc1OC + CNCc1ccccc1-c1csc(C(C)Nc2nc(C)nc3cc(OC)c(OC)cc23)c1 .
*A* 93.3

*Q* What measured viability, T/C goes with Cn1nccc1Nc1nccc(-c2cc3c(s2)C(C)(C)N(CCN2CCOCC2)C3=O)n1 + C=CC(=O)N1CCN(c2nc(OCC3CCCN3C)nc3c2CCN(c2cccc4cccc(C)c24)C3)CC1CC#N ?
*A* 107

*Q* Recorded viability, T/C of CCN1CCN(Cc2ccc(Nc3ncc(F)c(-c4cc(F)c5nc(C)n(C(C)C)c5c4)n3)nc2)CC1 + CC1OCC2(CCN(c3cnc(Sc4ccnc(N)c4Cl)c(N)n3)CC2)C1N , please.
*A* 72.9

*Q* Find the recorded viability, T/C belonging to O=C(c1cc(Cc2n[nH]c(=O)c3ccccc23)ccc1F)N1CCN(C(=O)C2CC2)CC1 + COc1cc2nc(C)nc(NC(C)c3cc(N)cc(C(F)(F)F)c3)c2cc1OC1CCOC1 and report it.
*A* 102

*Q* If you can, please state the reported viability, T/C value of COC(=O)c1ccc2c(C(=Nc3ccc(N(C)C(=O)CN4CCN(C)CC4)cc3)c3ccccc3)c(O)[nH]c2c1 + C=CC(=O)N1CCN(c2nc(OCC3CCCN3C)nc3c2CCN(c2cccc4cccc(C)c24)C3)CC1CC#N .
*A* 90.7

*Q* For CC(=O)OC12COC1CC(O)C1(C)C(=O)C(O)C3=C(C)C(OC(=O)C(O)C(NC(=O)OC(C)(C)C)c4ccccc4)CC(O)(C(OC(=O)c4ccccc4)C21)C3(C)C (stereo not given) + COc1cc2nc(C)nc(NC(C)c3cc(N)cc(C(F)(F)F)c3)c2cc1OC1CCOC1 , what is its reported viability, T/C?
*A* 41.4

*Q* I am curious: what viability, T/C value has been reported for CC(=O)OC12COC1CC(O)C1(C)C(=O)C(O)C3=C(C)C(OC(=O)C(O)C(NC(=O)OC(C)(C)C)c4ccccc4)CC(O)(C(OC(=O)c4ccccc4)C21)C3(C)C (stereo not given) + CNCc1ccccc1-c1csc(C(C)Nc2nc(C)nc3cc(OC)c(OC)cc23)c1 ?
*A* 46.6

----------
Exercise: for every item that follows, state its recorded pIC50.
System: 253994-281-T-J1-PDC KRAS-mutant spheroids with HUVEC/MSC, viability
test_details: Anticancer human tumor 253994-281-T-J1-PDC cell line growth inhibition [KRAS2];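 note: spheroids exposed to agents for seven days before readout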
experimental_context: curve of first compound; second compound 1 µM
The read-out pIC50 is expressed as -log10 of concentration in moles per litre.

*Q* For the molecule shown here, CC1COCCN1c1cc(-c2ccnn2C)c2ccnc(-c3ccn[nH]3)c2n1 (stereo unspecified) + CNCc1ccccc1-c1csc(C(C)Nc2nc(C)nc3cc(OC)c(OC)cc23)c1 , give the reported pIC50.
*A* 6.53

*Q* Give its pIC50 value. Item: CC(C)n1nc(-c2ccc3oc(N)nc3c2)c2c(N)ncnc21 + CC1OCC2(CCN(c3cnc(Sc4ccnc(N)c4Cl)c(N)n3)CC2)C1N
*A* 7.06

*Q* Need pIC50 of CC1OCC2(CCN(c3cnc(Sc4ccnc(N)c4Cl)c(N)n3)CC2)C1N (stereo unspecified) + COc1cc2nc(C)nc(NC(C)c3cc(N)cc(C(F)(F)F)c3)c2cc1OC1CCOC1 , thanks.
*A* 5.12

----------
Can you tell me viability, T/C for the items I'm about to list?
Tested on: 253994-281-T-J1-PDC KRAS-mutant spheroids with HUVEC/MSC, viability
test_details: Anticancer human tumor 253994-281-T-J1-PDC cell line growth inhibition [KRAS2];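 note: spheroids exposed to agents for seven days before readout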;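 for viability, T/C: percent of DMSO vehicle control viability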
experimental_context: second compound 1 µM; first compound 0.1 µM; stronger effect = lower value

*Q* Notebook entry, 253994-281-T-J1-PDC KRAS-mutant spheroids with HUVEC/MSC, viability assay: viability, T/C of CN(C)C/C=C/C(=O)Nc1cc2c(Nc3ccc(F)c(Cl)c3)ncnc2cc1O[C@H]1CCOC1 + CC1OCC2(CCN(c3cnc(Sc4ccnc(N)c4Cl)c(N)n3)CC2)C1N = ?
*A* 83.5%

*Q* Query for 253994-281-T-J1-PDC KRAS-mutant spheroids with HUVEC/MSC, viability: what viability, T/C does the record show for CC(C)NCC(C(=O)N1CCN(c2ncnc3c2C(C)CC3O)CC1)c1ccc(Cl)cc1 (stereo not drawn) + CC1OCC2(CCN(c3cnc(Sc4ccnc(N)c4Cl)c(N)n3)CC2)C1N ?
*A* 77.9%

*Q* Any idea what viability, T/C came out for CCNC(=O)CC1N=C(c2ccc(Cl)cc2)c2cc(OC)ccc2-n2c(C)nnc21 (stereo not drawn) + C=CC(=O)N1CCN(c2nc(=O)n(-c3c(C)ccnc3C(C)C)c3nc(-c4c(O)cccc4F)c(F)cc23)C(C)C1 on 253994-281-T-J1-PDC KRAS-mutant spheroids with HUVEC/MSC, viability?
*A* 102%
